These entries and their values trace back to ChEMBL document CHEMBL5665443.

I'd be grateful if you could share measured inhibition for these entries.
experimental system: Uracil-DNA glycosylase (Homo sapiens);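 also: UNG excision on a quenched double-stranded DNA oligo probe, with APE1 added for strand incision and turnover, read as fluorescence at 594 nm as strands separate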
assay context: Compound Concentration 10.0 uM, Hit No
Description: Inhibition of UNG by quantifying inhibition of UNG-mediated cleavage and dissociation of quenched duplex DNA oligonucleotides, measured as fluorescence at 594 nm. To generate a functional strand incision and increase turn-over this assay is coupled to APE1.
Give the number; % is assumed, so skip it.

Q) Find the recorded inhibition belonging to COc1ccc(-c2csc(NC(=O)[C@H]3CCCCN3S(=O)(=O)c3ccc(C)cc3)n2)cc1 and report it.
A) -6.47

Q) Could you do the same for CCOc1c2c(c(OCC)c3ncccc13)CN(c1ccc(CS(=O)(=O)NC(=O)Cc3ccccc3OC)cc1C)C2=O , please?
A) -8.19

Q) Could you do the same for O=C(Nc1cnc(Oc2ccc(F)cc2)nc1)N1CCc2ncccc2[C@@H]1c1ccc(F)cc1 , please?
A) -4.47

Q) Could you do the same for COC[C@@H](c1ccc(C(F)(F)F)cc1)N1CCN(C2(C)CCN(C(=O)c3c(C)ncnc3C)CC2)C[C@@H]1C , please?
A) -3.97

Q) Could you do the same for CC(C)Oc1ccc(Cc2ccc(NC3=NCCN3)cc2)cc1 , please?
A) -3.75

Q) Could you do the same for CN(C(=O)/C=C/c1ccoc1)[C@@H]1CC[C@@]2(O)[C@H]3Cc4ccc(O)c5c4[C@@]2(CCN3CC2CC2)[C@H]1O5 , please?
A) -6.84

Q) Could you do the same for CCn1cnc2c(-c3ccc(F)c(-c4ccc(S(=O)(=O)CC)cc4OC)c3)cnnc21 , please?
A) 6.05

Q) Could you do the same for Cc1nc(-c2ccc(C(F)(F)F)cc2)sc1C(=O)NCc1ccc(OC(C)(C)C(=O)O)cc1 , please?
A) 5.42

Q) Could you do the same for Nc1nc(CC(=O)Nc2ccc(CCNC[C@H](O)c3ccccc3)cc2)cs1 , please?
A) -1.78
